Target: T1, MBP-hCTR.36-151-H6 produced in HEK293S GnTI- cells (human, UniProt P30988-2 36-151, core N-glycans (Man5GlcNAc2) at N73, N125, N130)
T1 sequence (looked up): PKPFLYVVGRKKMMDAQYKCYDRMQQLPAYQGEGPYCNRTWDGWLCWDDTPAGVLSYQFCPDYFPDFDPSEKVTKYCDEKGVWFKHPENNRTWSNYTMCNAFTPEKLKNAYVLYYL
Assay: fluorescence polarisation
Ends that are not written are not given here.
MEASUREMENT TYPE: Ki

Check the records and state Ki for VLGKLSQELHKLQTYPRTNTGSGTP-NH2 [sCT(8-32)] ~3 µM

Data provenance is paper PMC5551398.
